Exercise: state measured IC50 for each of the molecules provided.
# target or test system: NADPH-oxidase (Homo sapiens, UniProt P04839)
# Construct: endogenous in cells
# Sequence (P04839 whole entry): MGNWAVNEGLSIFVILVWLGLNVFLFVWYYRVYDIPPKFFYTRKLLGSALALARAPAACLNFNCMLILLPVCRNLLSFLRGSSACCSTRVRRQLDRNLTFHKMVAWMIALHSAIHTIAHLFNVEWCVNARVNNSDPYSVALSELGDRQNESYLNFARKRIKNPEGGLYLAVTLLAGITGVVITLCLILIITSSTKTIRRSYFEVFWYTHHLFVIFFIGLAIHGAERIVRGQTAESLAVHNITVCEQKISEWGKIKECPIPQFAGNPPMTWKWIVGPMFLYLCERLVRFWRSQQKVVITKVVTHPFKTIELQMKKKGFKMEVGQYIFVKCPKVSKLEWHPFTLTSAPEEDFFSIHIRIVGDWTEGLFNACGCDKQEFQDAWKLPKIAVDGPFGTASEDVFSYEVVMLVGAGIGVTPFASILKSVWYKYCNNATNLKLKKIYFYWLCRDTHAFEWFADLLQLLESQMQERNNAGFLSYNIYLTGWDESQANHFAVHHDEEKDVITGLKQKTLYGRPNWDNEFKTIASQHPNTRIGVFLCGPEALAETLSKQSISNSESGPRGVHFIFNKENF
# Sequence (P13498 whole entry partner): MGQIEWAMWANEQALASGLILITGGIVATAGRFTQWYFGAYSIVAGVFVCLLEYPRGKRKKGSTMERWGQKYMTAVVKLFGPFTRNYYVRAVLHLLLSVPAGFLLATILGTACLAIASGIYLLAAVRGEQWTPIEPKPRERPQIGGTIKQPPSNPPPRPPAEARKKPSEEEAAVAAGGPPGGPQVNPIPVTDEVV
# test protocol: Oxidase Inhibition Assay (PMA-stimulated superoxide-mediated reduction of Cytochrome c, absorbance at 550 nm)
# protocol conditions: human neutrophils, 0.5 μM PMA, Cytochrome c reduction at 550 nm
Include the unit right after the number.

IN: // IC50 lookup, key: Clc1ccc(-c2csc(COc3cccc(CNC4CCCCC4)c3)n2)cc1 [Cpd 4]
OUT: 0.13 µM

IN: // IC50 lookup, key: COc1ccc2[nH]cc(CCNCc3cccc(OCc4nc(-c5ccc(Cl)cc5)cs4)c3)c2c1 [Cpd 9]
OUT: 0.3 µM

IN: // IC50 lookup, key: Clc1ccc(-c2csc(COc3cccc(CNC4CCCC4)c3)n2)cc1 [Cpd 3]
OUT: 0.04 µM

IN: // IC50 lookup, key: Clc1ccc(-c2csc(COc3cccc(CNCCN4CCOCC4)c3)n2)cc1 [Cpd 7]
OUT: 1.47 µM

IN: // IC50 lookup, key: Clc1ccc(-c2csc(COc3cccc(CNC4CC4)c3)n2)cc1 [Cpd 5]
OUT: 3.45 µM

IN: // IC50 lookup, key: CN1CCCC1CNCc1cccc(OCc2nc(-c3ccc(Cl)cc3)cs2)c1 (stereo not shown) [Cpd 6]
OUT: 10 µM

IN: // IC50 lookup, key: CCCNCc1cccc(OCc2nc(-c3ccc(Cl)cc3)cs2)c1 [Cpd 1]
OUT: 1.65 µM

IN: // IC50 lookup, key: NCc1cccc(OCc2nc(-c3ccc(Cl)cc3)cs2)c1 [Cpd 11]
OUT: 1.9 µM

IN: // IC50 lookup, key: Clc1ccc(-c2csc(COc3ccc(CNC4CCCC4)cc3)n2)cc1 [Cpd 10]
OUT: 0.7 µM

IN: // IC50 lookup, key: `CC(C)CNCc1cccc(OCc2nc(-c3ccc(Cl)cc3)cs2)c1`
OUT: 2.5 µM

----------
Exercise: state measured melting point for each of the molecules provided.

IN: // melting point lookup, key: `Clc1ccc(-c2csc(COc3cccc(CNC4CCCCC4)c3)n2)cc1`
OUT: 85 to 86 °C

IN: // melting point lookup, key: `NCc1cccc(OCc2nc(-c3ccc(Cl)cc3)cs2)c1`
OUT: 117 to 118.5 °C

IN: // melting point lookup, key: `CCCNCc1ccc(OCc2nc(-c3ccc(Cl)cc3)cs2)cc1`
OUT: 63.5 to 64.5 °C

IN: // melting point lookup, key: `Clc1ccc(-c2csc(COc3cccc(CNC4CCCC4)c3)n2)cc1`
OUT: 94 to 94.5 °C

IN: // melting point lookup, key: `CCCCNCc1cccc(OCc2nc(-c3ccc(Cl)cc3)cs2)c1`
OUT: 86 to 88 °C

IN: // melting point lookup, key: `CCCNCc1cccc(OCc2nc(-c3ccc(Cl)cc3)cs2)c1`
OUT: 63.5 to 64.5 °C

IN: // melting point lookup, key: `Clc1ccc(-c2csc(COc3ccc(CNC4CCCC4)cc3)n2)cc1`
OUT: 125.5 to 126.5 °C

IN: // melting point lookup, key: `Clc1ccc(-c2csc(COc3cccc(CNC4CC4)c3)n2)cc1`
OUT: 80.5 to 81.5 °C
